Reference source for all entries: PubChem BioAssay

For each record, write down the corresponding composite z-score.
- Target Or Test System: Calmodulin-1 (Homo sapiens)
- Protocol: small molecules binding Ca-loaded calmodulin-1 – biochemical, small-molecule microarray, Cy5-labelled CALM1, plus calcium, artefact control for SMM control-protein annotation, profiling panel (AID 1112);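 note: score merges spot fluorescence with signal to noise from triplicate slides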
- Test Settings: Cy5-CALM1 binding fluorescence, higher = more signal
Give bare numbers.

Field: example entries. Status: answers known.
O=C(NC1CC1)[C@@H]1c2ccccc2C(=O)N(Cc2cc(F)cc(C(F)(F)F)c2)[C@H]1c1ccc(CO)cc1	-0.628
O=C(CS)NCCCCCNC(=O)[C@@H]1C[C@@H]2C(=O)NCC(=O)N2[C@@H]1c1cccc(OCCO)c1	-0.193
O=C1C2C=CC(C(O)C=Cc3ccc([N+](=O)[O-])cc3)N(Nc3ccccc3F)C2C(=O)N1c1ccccc1 (centres undefined)	0.362
CCCCC(=C=CC[C@@H](O)c1cccc(OCCO)c1)C[C@@H](O)c1ccccn1	-0.946
CCCC=C(CCC)[C@@H](NC(=O)OCC(C)C)c1ccccc1	0.438
CN1C(=O)C2C=CC(C(O)c3c(F)cccc3Cl)N(NC(=O)OC(C)(C)C)C2C1=O (centres undefined)	0.498
COc1ccc(C(O)C2C=CC3C(=O)N(C)C(=O)C3N2NC(=O)OC(C)(C)C)c2ccccc12 (centres undefined)	0.47
[N-]=[N+]=Nc1ccccc1C[C@@]1(C(=O)N2CCCCC2)N=C(c2ccc(OCCCO)cc2)O[C@@H]1c1ccccc1	0.914

Please look at the items below and tell me composite z-score for each one, in order.
1. CCCCN1CC=CC23O[C@@H]4C=CCOC(=O)[C@@H]4[C@H]2C(=O)N(CCCCCCO)[C@@H]3C1=O (some centres undefined)
2. COCCOC(=O)N1C(=O)[C@@]2(c3cc(C#Cc4ccc(OC)cc4)ccc31)[C@H](c1ccc(O)cc1)N1[C@H](c3ccccc3)[C@H](c3ccccc3)OC(=O)[C@H]1[C@@H]2C(=O)Nc1nc2ccccc2s1
3. C=CCOC(=O)[C@H]1[C@@H]2C(=O)O[C@@H](c3ccccc3)[C@@H](c3ccccc3)N2[C@@H](c2ccc(OCCOC(=O)[C@@H]3C[C@@H]4C(=O)N5CCC[C@H]5C(=O)N4[C@@H]3c3cccc(OCCO)c3)cc2)[C@]12C(=O)Nc1ccc(I)cc12
4. C=C(/C(=C/C[C@H](OC(C)=O)c1ccc(OCCO)cc1)c1cc(C(=O)OC)ccc1OC)C(C)C
5. O=C1O[C@@H](c2ccccc2)[C@@H](c2ccccc2)N2[C@@H](c3ccc(OCCO)cc3)[C@]3(C(=O)Nc4ccc(C#CCCO)cc43)[C@@H](C(=O)NC[C@H](O)c3ccccc3)[C@H]12
6. O=C1OCCC=C[C@H]2OC34C=CCN(c5ccc(Cl)cc5)C(=O)[C@H]3N(CCCO)C(=O)[C@@H]4C12 (some centres undefined)

A.
1: 0.224; 2: 0.907; 3: -0.0883; 4: 0.116; 5: 0.174; 6: 0.168

* * *

- Protocol: probe aNog binding to arrayed compounds – biochemical, biotinylated probe, 635/667 nm fluorescence, primary screen (AID 1115);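 note: probe is biotinylated aNog protein used at 0.15 µg/mL for 1 h at 4 C; z-score combines 667 nm fluorescence of each spot with its signal to noise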
- Test Settings: small-molecule microarray, higher = more signal
Readout: composite z-score

Field: example entries. Status: answers known.
COCCCNC(=O)[C@@]1(Cc2ccccc2CN=[N+]=[N-])N=C(c2ccc(OCCCO)cc2)O[C@H]1c1ccccc1CN=[N+]=[N-]	-0.69
O=C1C2C=CC(C(O)C=Cc3ccc([N+](=O)[O-])cc3)N(Nc3ccccc3F)C2C(=O)N1c1ccccc1 (centres undefined)	0.581
CO[C@H]1O[C@H](CO)[C@@H](OC(=O)Nc2ccc(Br)cc2)[C@@H]2OC(=O)[C@H](Cc3cccc(Br)c3)C/C=C/C[C@@H](Cc3cccc(Br)c3)C(=O)O[C@@H]12	-0.1
O=C1O[C@@H](c2ccccc2)[C@@H](c2ccccc2)N2[C@@H](c3ccc(OCCO)cc3)[C@]3(C(=O)Nc4ccc(C#CC5=CCCCC5)cc43)[C@@H](C(=O)N3CCCCCCC3)[C@H]12	3.02
COc1ccc([C@H]2OC[C@@H]3CCC(=O)N32)cc1	-0.324
CCCC=C(CCC)[C@@H](NC(=O)OCC(C)C)c1ccccc1	1.99
C=CCN1Cc2ccccc2[C@@H]2OC(c3ccc(OCCCO)cc3)=N[C@]2(CCS(=O)(=O)c2ccccc2)C1=O	0.714
NC(=O)NCC#Cc1ccc2c(c1)[C@]1(C(=O)N2)[C@H](C(=O)O)[C@H]2C(=O)O[C@H](c3ccccc3)[C@H](c3ccccc3)N2[C@@H]1c1ccc(O)cc1	1.61
O=C1NC(=O)C2C1C=CC(C(O)C=Cc1ccc([N+](=O)[O-])cc1)N2Nc1ccc(Cl)cc1Cl (centres undefined)	0.0884
Cc1c(NC(=O)/C(C#N)=C/c2cccc([N+](=O)[O-])c2)c(=O)n(-c2ccccc2)n1C	-0.346

Please look at the items below and tell me composite z-score for each one, in order.
1. CC(C)(C)OC(=O)CC[C@@]1(C(=O)N2CCCCC2)N=C(c2ccc(OCCCO)cc2)O[C@@H]1c1ccccc1
2. O=C(NC1CC1)[C@@H]1c2ccccc2C(=O)N(Cc2cc(F)cc(C(F)(F)F)c2)[C@H]1c1ccc(CO)cc1
3. CCCCC(=C=CC[C@H](O)c1cccc(OCCO)c1)C[C@H](O)c1ccccn1
4. NC(=O)[C@@H]1[C@H]2C(=O)O[C@H](c3ccccc3)[C@H](c3ccccc3)N2[C@H](c2ccc(O)cc2)[C@@]12C(=O)Nc1ccc(C#CC3=CCCCC3)cc12
5. CCCCCCc1nc(-c2ccc(-c3ccc(Cl)c(Cl)c3)o2)cc2c1[Si](C(C)C)(C(C)C)O[C@H]2c1ccccc1
6. Cc1ccc(C2C3C(=O)CC4C(=O)N(c5ccccc5)C(=O)C4C3CN2S(=O)(=O)c2ccc(C)cc2)cc1 (centres undefined)
7. COCCOC(=O)N1C(=O)[C@@]2(c3ccccc31)[C@H](C(N)=O)[C@H]1C(=O)O[C@H](c3ccccc3)[C@H](c3ccccc3)N1[C@@H]2c1ccc(O)cc1

A.
0.414
0.0308
-0.23
1.01
-0.141
-0.308
-0.334

Please look at the items below and tell me composite z-score for each one, in order.
1. C=CC[C@]1(C(N)=O)N=C(c2ccc(OCCCO)cc2)O[C@H]1c1ccccc1
2. COc1ccc(C(=O)Nc2cccc(CN3C(=O)[C@]4(O[C@H](CCn5cc(CCO)nn5)[C@@H]([Si](C)(C)c5ccc(OC)cc5)[C@@H]4C)c4ccccc43)c2)cc1

A.
0.041
0.0471
